Listing: Affinity ELISA CPE mutant ratio (1:3, pH 6.0/7.4) of selected binders
Target: T1, Axl protein (human, UniProt P30530 26-451)
T1 construct: extracellular domain; also called human Axl; hAxl
T1 sequence (looked up): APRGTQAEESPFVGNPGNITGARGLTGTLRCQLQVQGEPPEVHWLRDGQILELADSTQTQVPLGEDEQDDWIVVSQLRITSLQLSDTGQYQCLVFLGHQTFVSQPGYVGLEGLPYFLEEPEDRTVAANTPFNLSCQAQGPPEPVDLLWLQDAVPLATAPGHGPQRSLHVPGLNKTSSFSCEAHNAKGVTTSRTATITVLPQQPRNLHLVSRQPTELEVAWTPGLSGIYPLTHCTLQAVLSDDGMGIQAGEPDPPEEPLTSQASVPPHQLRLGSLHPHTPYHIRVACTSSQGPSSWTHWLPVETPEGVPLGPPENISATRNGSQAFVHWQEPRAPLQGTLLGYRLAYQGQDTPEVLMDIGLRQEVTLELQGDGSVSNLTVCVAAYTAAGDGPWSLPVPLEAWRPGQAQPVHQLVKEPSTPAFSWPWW
Test: ELISA, 1:3 dilution, pH 6.0 over pH 7.4
Please reply with the bare figure in ratio and do not write the unit itself.

LC-A051N (antibody, V domains shown) VH: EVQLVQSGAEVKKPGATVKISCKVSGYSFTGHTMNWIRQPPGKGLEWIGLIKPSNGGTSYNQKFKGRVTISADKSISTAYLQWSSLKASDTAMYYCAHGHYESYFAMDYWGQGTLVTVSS VL: DIQMTQSPSSLSASVGDRVTITCKASQDVSSAVAWYQQKPGQAPRLLIYWNSTRHTGVPSRFSGSGSGTEFTLTISSLQPDDFATYYCQEHFSTPLTFGQGTKVEIK; 1.41

Now examine the next entry.
# input Return reported Affinity ELISA CPE mutant ratio (1:3, pH 6.0/7.4); argument: LC-V029W (antibody, V domains shown) VH: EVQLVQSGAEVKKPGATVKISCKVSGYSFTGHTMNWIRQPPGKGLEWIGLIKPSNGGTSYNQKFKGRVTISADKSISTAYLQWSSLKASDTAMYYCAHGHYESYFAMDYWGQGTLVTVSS VL: DIQMTQSPSSLSASVGDRVTITCKASQDWSSAVAWYQQKPGQAPRLLIYWASTRHTGVPSRFSGSGSGTEFTLTISSLQPDDFATYYCQEHFSTPLTFGQGTKVEIK
# output 2.31

Numbers sourced from patent US20190177417A1.
